Could you please report measured Activity (percent of PREG) for the items listed next?
# TARGET UNDER TEST: purified tubulin and MAP2 (Homo sapiens)
# Sequence (P11137 whole entry): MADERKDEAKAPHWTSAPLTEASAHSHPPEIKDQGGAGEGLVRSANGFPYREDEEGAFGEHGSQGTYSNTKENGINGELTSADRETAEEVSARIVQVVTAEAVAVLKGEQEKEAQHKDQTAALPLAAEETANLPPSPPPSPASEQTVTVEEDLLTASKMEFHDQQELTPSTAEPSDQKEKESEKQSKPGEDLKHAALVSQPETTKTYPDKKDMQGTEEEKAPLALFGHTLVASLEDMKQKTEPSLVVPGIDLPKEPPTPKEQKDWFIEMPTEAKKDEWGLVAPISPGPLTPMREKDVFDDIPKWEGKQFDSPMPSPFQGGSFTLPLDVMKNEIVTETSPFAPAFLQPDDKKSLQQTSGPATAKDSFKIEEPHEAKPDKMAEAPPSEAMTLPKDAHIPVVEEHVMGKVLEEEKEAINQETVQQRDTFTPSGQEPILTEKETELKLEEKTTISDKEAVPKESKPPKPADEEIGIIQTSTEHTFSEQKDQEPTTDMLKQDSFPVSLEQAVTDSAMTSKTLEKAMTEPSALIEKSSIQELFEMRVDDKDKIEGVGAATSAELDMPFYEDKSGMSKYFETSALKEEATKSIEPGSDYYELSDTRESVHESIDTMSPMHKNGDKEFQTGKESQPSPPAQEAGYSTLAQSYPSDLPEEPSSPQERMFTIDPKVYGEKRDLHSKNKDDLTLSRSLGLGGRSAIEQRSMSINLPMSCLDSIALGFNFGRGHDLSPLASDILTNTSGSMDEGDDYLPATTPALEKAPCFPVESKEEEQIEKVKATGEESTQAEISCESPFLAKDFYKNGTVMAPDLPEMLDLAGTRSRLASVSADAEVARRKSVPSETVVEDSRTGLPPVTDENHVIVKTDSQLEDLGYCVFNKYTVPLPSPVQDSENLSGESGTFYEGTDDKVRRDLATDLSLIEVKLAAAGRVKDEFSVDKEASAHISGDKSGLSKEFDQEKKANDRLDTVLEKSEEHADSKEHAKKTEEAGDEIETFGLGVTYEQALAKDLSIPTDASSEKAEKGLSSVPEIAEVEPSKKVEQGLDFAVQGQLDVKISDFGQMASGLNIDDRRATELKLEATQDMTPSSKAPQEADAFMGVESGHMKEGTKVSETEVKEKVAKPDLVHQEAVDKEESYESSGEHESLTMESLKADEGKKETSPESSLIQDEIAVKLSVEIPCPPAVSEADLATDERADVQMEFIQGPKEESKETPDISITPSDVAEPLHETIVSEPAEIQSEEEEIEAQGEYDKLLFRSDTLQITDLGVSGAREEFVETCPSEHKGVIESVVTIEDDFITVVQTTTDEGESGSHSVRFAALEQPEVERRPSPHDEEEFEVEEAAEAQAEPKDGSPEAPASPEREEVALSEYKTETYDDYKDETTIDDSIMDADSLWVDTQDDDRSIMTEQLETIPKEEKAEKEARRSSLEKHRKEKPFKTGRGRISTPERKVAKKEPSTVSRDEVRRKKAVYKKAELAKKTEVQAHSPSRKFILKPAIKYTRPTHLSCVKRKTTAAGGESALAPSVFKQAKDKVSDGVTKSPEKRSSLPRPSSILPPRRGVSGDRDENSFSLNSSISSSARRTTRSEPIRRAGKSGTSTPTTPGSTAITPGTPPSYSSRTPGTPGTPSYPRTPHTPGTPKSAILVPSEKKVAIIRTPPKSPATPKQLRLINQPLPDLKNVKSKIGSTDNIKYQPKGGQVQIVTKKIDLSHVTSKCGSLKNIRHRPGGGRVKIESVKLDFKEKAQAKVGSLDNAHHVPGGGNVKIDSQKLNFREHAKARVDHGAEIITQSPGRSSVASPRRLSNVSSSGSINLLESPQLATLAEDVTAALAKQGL
# RUN DESCRIPTION: Increase in optical density at 345 nm of purified tubulin and MAP2 (microtubule polymerization)
# Type: biochemical
# REPORTED CONDITIONS: 37° C., GTP

The cases that follow already have their Activity (percent of PREG) on record.
COMPOUND: CO[C@H]1CC[C@@]2(C)[C@@H](CC[C@@H]3[C@@H]2CC[C@]2(C)[C@@H](C(C)=O)CC[C@@H]32)C1
READOUT VALUE: 10% of PREG
--
COMPOUND: CO[C@H]1CC[C@@]2(C)C(=CC[C@H]3[C@@H]4CC[C@H](C(C)=O)[C@@]4(C)CC[C@@H]32)C1
READOUT VALUE: 100% of PREG

Moving on to another compound below.
Problem: Item under review: CC(=O)[C@H]1CC[C@H]2[C@@H]3CC=C4C[C@@H](O)CC[C@]4(C)[C@H]3CC[C@]12C [Pregnenolone (PREG), 3β-hydroxypregn-5-en-20-one, reference compound] . Reported Activity (percent of PREG)?
Solution: 100% of PREG

###

# TARGET UNDER TEST: purified tubulin and MAP2 (Homo sapiens)
# RUN DESCRIPTION: Increase in optical density at 345 nm of purified tubulin and MAP2 (microtubule polymerization)
# Assay type: biochemical
# REPORTED CONDITIONS: 37° C., GTP
MEASUREMENT TYPE: Activity (percent of PREG)

The cases that follow already have their Activity (percent of PREG) on record.
COMPOUND: CO[C@H]1CC[C@@]2(C)C(=CC[C@@H]3[C@@H]2CC[C@@]2(C)[C@H]3CC[C@@]2(C(C)=O)C(Cl)Cl)C1
MEASUREMENT TYPE: Activity (percent of PREG)
READOUT VALUE: 113% of PREG

COMPOUND: CO[C@H]1CC[C@@]2(C)C(CCC3C2CC[C@@]2(C)C3CC[C@@H]2[C@@H](C)O)C1 (stereo partly drawn) [3B-methoxy-5a-pregnane-20B-ol, 3β-methoxy-5α-pregnane-20β-ol]
MEASUREMENT TYPE: Activity (percent of PREG)
READOUT VALUE: 65% of PREG

Moving on to another compound below.
Problem: Item under review: CO[C@H]1CC[C@@]2(C)C(=CC[C@H]3C4=CC[C@H](C(C)=O)[C@@]4(C)CC[C@@H]32)C1 . Reported Activity (percent of PREG)?
Solution: 50% of PREG
